Where these numbers come from: paper PMC7994712

- Tested system: Somatostatin receptor 2 (SSTR2) (human), P30874
- Sequence (P30874 whole entry): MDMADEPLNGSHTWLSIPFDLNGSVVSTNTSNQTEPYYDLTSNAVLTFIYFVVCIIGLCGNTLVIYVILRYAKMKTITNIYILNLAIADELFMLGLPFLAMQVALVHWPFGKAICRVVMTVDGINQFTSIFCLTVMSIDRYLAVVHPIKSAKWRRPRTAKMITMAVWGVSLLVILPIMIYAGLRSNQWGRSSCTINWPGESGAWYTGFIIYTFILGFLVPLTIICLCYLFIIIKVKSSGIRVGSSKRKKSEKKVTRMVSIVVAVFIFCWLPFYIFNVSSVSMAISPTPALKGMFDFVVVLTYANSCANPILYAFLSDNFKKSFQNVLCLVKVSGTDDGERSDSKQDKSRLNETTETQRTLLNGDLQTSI
- Assay overview: competition with 125I-Tyr11 SST14
- Test settings: octanoyl moiety at the N-terminus (N-octanoyl amide); L-mesityl alanine (Msa) at position 5; D-Trp at position 7; disulfide bridge between the two cysteines
pIC50: −log10 of the molar value.

Binder: PCKNFFWKTFTSCK [Cortistatin analogue 5]
pIC50: 7.46
